The values you see were collected from the supplement of paper PMC4862054.

Test system: BT-549
Test: normalised response (% of control), CellTiter-Glo; higher = more viable cells (100 = DMSO, 0 = benzethonium chloride kill control)
Conditions: incubation time: 72 h
# normalised response listing for each entry below
A number alone suffices; assume %.

INSERT INTO assay_data (molecule, readout_kind, reported) VALUES
  ('COc1cccc2c1C(=O)c1c(O)c3c(c(O)c1C2=O)C[C@@](O)(C(=O)CO)C[C@@H]3O[C@H]1C[C@H](N)[C@H](O)[C@H](C)O1 [Doxorubicin] (1 nM)', 'normalised response', 94.2),
  ('C[C@]1(c2nc3c(C(N)=O)cccc3[nH]2)CCCN1 [Veliparib] (1 nM)', 'normalised response', 104),
  ('Clc1ccc(C(c2ccccc2Cl)C(Cl)Cl)cc1 (centres undefined) [Mitotane] (1000 nM)', 'normalised response', 100);

Consider the record given below.
## Input What value of normalised response has been recorded for this entry: CCN1CCN(c2ccc(Nc3cc(N(C)C(=O)Nc4c(Cl)c(OC)cc(OC)c4Cl)ncn3)cc2)CC1 [NVP-BGJ398] (1 nM)
## Output 96

====

# normalised viability listing for each entry below
Tested on: HCC1937
Test: normalised viability (% of control), CellTiter-Blue; higher = more viable cells (100 = DMSO, 0 = benzethonium chloride kill control)
Conditions: incubation time: 72 h
A number alone suffices; assume %.

Some molecules with recorded normalised viability:
INSERT INTO assay_data (molecule, readout_kind, reported) VALUES
  ('Cc1ccc(F)c(NC(=O)Nc2ccc(-c3cccc4[nH]nc(N)c34)cc2)c1 [Linifanib] (0.1 nM)', 'normalised viability', 92.4),
  ('N#CC[C@H](C1CCCC1)n1cc(-c2ncnc3[nH]ccc23)cn1 [Ruxolitinib] (1 nM)', 'normalised viability', 102),
  ('COc1cc(Nc2ncc3c(n2)-c2ccc(Cl)cc2C(c2c(F)cccc2OC)=NC3)ccc1C(=O)O [MLN8237] (1 nM)', 'normalised viability', 101),
  ('Nc1ccn([C@@H]2O[C@H](CO)[C@@H](O)[C@@H]2O)c(=O)n1 [Cytarabine] (1 nM)', 'normalised viability', 95.3),
  ('C=CCNC1=C2C[C@@H](C)C[C@H](OC)[C@H](O)[C@@H](C)/C=C(\C)[C@H](OC(N)=O)[C@@H](OC)/C=C\C=C(/C)C(=O)NC(=CC1=O)C2=O [Tanespimycin] (1 nM)', 'normalised viability', 86.4);

Consider the record given below.
## Input What value of normalised viability has been recorded for this entry: CS(=O)(=O)c1ccc(C(=O)Nc2ccc(Cl)c(-c3ccccn3)c2)c(Cl)c1 [Vismodegib] (1 nM)
## Output 103

====

System: DU-4475
Assay: normalised response (% of control), CellTiter-Glo; higher = more viable cells (100 = DMSO, 0 = benzethonium chloride kill control)
Settings: incubation time: 72 h
# normalised response listing for each entry below
A number alone suffices; assume %.

Some molecules with recorded normalised response:
INSERT INTO measurements (molecule, readout_kind, unit_tag, reported) VALUES
  ('CO[C@H]1C[C@@H]2CC[C@@H](C)[C@@](O)(O2)C(=O)C(=O)N2CCCC[C@H]2C(=O)O[C@H]([C@H](C)C[C@@H]2CC[C@@H](OC(=O)C(C)(CO)CO)[C@H](OC)C2)CC(=O)[C@H](C)/C=C(\C)[C@@H](O)[C@@H](OC)C(=O)[C@H](C)C[C@H](C)/C=C/C=C/C=C/1C [Temsirolimus] (0.1 nM)', 'normalised response', '%', 104),
  ('CC[C@]1(O)C[C@@H]2CN(CCc3c([nH]c4ccccc34)[C@@](C(=O)OC)(c3cc4c(cc3OC)N(C)[C@H]3[C@@](O)(C(=O)OC)[C@H](OC(C)=O)[C@]5(CC)C=CCN6CC[C@]43[C@@H]65)C2)C1 [Vinblastine] (1 nM)', 'normalised response', '%', 96.9),
  ('CCN1CCN(c2ccc(Nc3cc(N(C)C(=O)Nc4c(Cl)c(OC)cc(OC)c4Cl)ncn3)cc2)CC1 [NVP-BGJ398] (1 nM)', 'normalised response', '%', 99),
  ('N#CC[C@H](C1CCCC1)n1cc(-c2ncnc3[nH]ccc23)cn1 [Ruxolitinib] (1 nM)', 'normalised response', '%', 91.9);

## Input Find the measured normalised response: item C=CC[C@@H]1/C=C(\C)C[C@H](C)C[C@H](OC)[C@H]2O[C@@](O)(C(=O)C(=O)N3CCCC[C@H]3C(=O)O[C@H](/C(C)=C/[C@@H]3CC[C@@H](O)[C@H](OC)C3)[C@H](C)[C@@H](O)CC1=O)[C@H](C)C[C@@H]2OC [Tacrolimus] (10 nM) , target or system DU-4475.
## Output 105

## Input # iterate: Nc1nc(Cl)nc2c1ncn2[C@H]1C[C@H](O)[C@@H](CO)O1 [Cladribine] (1 nM)
## Output 106

====

Test system: HCC1937
Assay: drug sensitivity score (DSS), CellTiter-Blue viability (DSS (AUC-based score)); higher = stronger viability inhibition; extreme values may be limits of the assay
Details: incubation time: 72 h
# drug sensitivity score listing for each entry below
Respond using a number only.

Some compounds with recorded drug sensitivity score:
INSERT INTO measurements (compound, reported) VALUES
  ('CO[C@H]1C[C@@H]2CC[C@@H](C)[C@@](O)(O2)C(=O)C(=O)N2CCCC[C@H]2C(=O)O[C@H]([C@H](C)C[C@@H]2CC[C@@H](OC(=O)C(C)(CO)CO)[C@H](OC)C2)CC(=O)[C@H](C)/C=C(\C)[C@@H](O)[C@@H](OC)C(=O)[C@H](C)C[C@H](C)/C=C/C=C/C=C/1C [Temsirolimus]', 0),
  ('CN1CC[C@H](c2c(O)cc(O)c3c(=O)cc(-c4ccccc4Cl)oc23)[C@H](O)C1 [Alvocidib]', 19.1),
  ('Cc1c2oc3c(C)ccc(C(=O)N[C@@H]4C(=O)N[C@H](C(C)C)C(=O)N5CCC[C@H]5C(=O)N(C)CC(=O)N(C)[C@@H](C(C)C)C(=O)O[C@@H]4C)c3nc-2c(C(=O)N[C@@H]2C(=O)N[C@H](C(C)C)C(=O)N3CCC[C@H]3C(=O)N(C)CC(=O)N(C)[C@@H](C(C)C)C(=O)O[C@@H]2C)c(N)c1=O [Dactinomycin]', 21.8);

## Input What value of drug sensitivity score has been recorded for this entry: C=CCNC1=C2C[C@@H](C)C[C@H](OC)[C@H](O)[C@@H](C)/C=C(\C)[C@H](OC(N)=O)[C@@H](OC)/C=C\C=C(/C)C(=O)NC(=CC1=O)C2=O [Tanespimycin]
## Output 18.2

## Input # iterate: Nc1nc(Cl)nc2c1ncn2[C@H]1C[C@H](O)[C@@H](CO)O1 [Cladribine]
## Output 8.9

## Input # iterate: COc1cccc2cc(-c3nc([C@H]4CC[C@H](C(=O)O)CC4)n4ncnc(N)c34)[nH]c12 [OSI-027]
## Output 8.55

## Input # iterate: COc1cc(Nc2ncc3c(n2)-c2ccc(Cl)cc2C(c2c(F)cccc2OC)=NC3)ccc1C(=O)O [MLN8237]
## Output 17.8

====

Test system: DU-4475
Assay: normalised viability (% of control), CellTiter-Blue; higher = more viable cells (about 100 = DMSO control)
Conditions: 10 nM; incubation time: 72 h
# normalised viability listing for each entry below
A number alone suffices; assume %.

INSERT INTO assay_data (structure_notation, readout_kind, unit_tag, reported) VALUES
  ('CS(=O)(=O)c1ccc(C(=O)Nc2ccc(Cl)c(-c3ccccn3)c2)c(Cl)c1', 'normalised viability', '%', 108),
  ('CN1CCC(COc2cnc(-c3cccc(Cn4nc(-c5cccc(C#N)c5)ccc4=O)c3)nc2)CC1', 'normalised viability', '%', 98.3),
  ('C[C@]1(c2nc3c(C(N)=O)cccc3[nH]2)CCCN1', 'normalised viability', '%', 98.2),
  ('S=c1[nH]cnc2nc[nH]c12', 'normalised viability', '%', 130),
  ('N#CC[C@H](C1CCCC1)n1cc(-c2ncnc3[nH]ccc23)cn1', 'normalised viability', '%', 101);

## Input What value of normalised viability has been recorded for this entry: COc1cccc2cc(-c3nc([C@H]4CC[C@H](C(=O)O)CC4)n4ncnc(N)c34)[nH]c12
## Output 105

====

Test system: MDA-MB-231
Assay: normalised viability (% of control), CellTiter-Blue; higher = more viable cells (about 100 = DMSO control)
Conditions: 10 nM; incubation time: 72 h
So basically, if normalised viability comes in under 90% it's YES, and if it's 90% or more it's NO.

Known results for compounds:
INSERT INTO assay_data (compound, label_class) VALUES
  ('Clc1ccc(C(c2ccccc2Cl)C(Cl)Cl)cc1 (stereo unspecified)', 'YES'),
  ('C[C@]1(c2nc3c(C(N)=O)cccc3[nH]2)CCCN1', 'YES');

Then this compound:
## Input Say whether its normalised viability is strictly beneath 90%. Entry: COc1cc(Nc2ncc3c(n2)-c2ccc(Cl)cc2C(c2c(F)cccc2OC)=NC3)ccc1C(=O)O
## Output NO
